Where these numbers come from: the supplement of paper PMC12042874

Assay: amyloid nucleation score (Sup35N fusion, yeast selection) (log enrichment); library NNK3; higher = more nucleation; inactive = no reads after selection;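 further: zero at mode of non-aggregating sequences after 7 days selection at 30°C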
Metric: amyloid nucleation score

>>> observed_measurement("WAEREDAAVSLGLWYGDTCF")
"inactive"
>>> observed_measurement("LTHGAVTVFYRFIMLSFILR")
"inactive"
>>> observed_measurement("NPLYVFDRI")
-0.71
>>> observed_measurement("RVCFLRINDGR")
0.06
>>> observed_measurement("KLCTVSNRSVMPGIT")
"inactive"
>>> observed_measurement("VQVLYVICLSSSMLYRLVVR")
"inactive"
>>> observed_measurement("EWVANPSFGYAEWLLV")
"inactive"
>>> observed_measurement("MRHEHAYSIPAHCIYELIMM")
"inactive"
>>> observed_measurement("PKALVFNLEDDLQGIWSVT")
2.1
>>> observed_measurement("FIRVFYSCIYVDKVLCEGRL")
1.5
>>> observed_measurement("LFSEFQ")
0.574
>>> observed_measurement("VTRSDGTTISYNISIKLGKG")
2.2
>>> observed_measurement("ILVDWFDCDQCKQTFCPGLV")
"inactive"
>>> observed_measurement("ESNGVSGPAQMERDTVPEVP")
"inactive"
>>> observed_measurement("FFKYYG")
"inactive"
>>> observed_measurement("MVNWPDGRILGSLRNWRHQD")
"inactive"
>>> observed_measurement("EGGCYSPKHG")
0.741
>>> observed_measurement("ILFRYFISGMVVWGDNMENE")
"inactive"

====

Listed here: items and their measured amyloid nucleation score.
Experiment: amyloid nucleation score (Sup35N fusion, yeast selection) (log enrichment); library NNK1; higher = more nucleation; inactive = no reads after selection
Metric: amyloid nucleation score

>>> observed_measurement("YMNTFVIRSMHSLLNGYAFS")
0.429
>>> observed_measurement("YDQGVPTDVLILIAIEHQLS")
5.53
>>> observed_measurement("RTNSSSVCSILKGLSQ")
-0.535
>>> observed_measurement("PSALFFSVTLKVHINLAISS")
0.431
>>> observed_measurement("YFWASHISSVYLNLETCDTM")
-0.417
>>> observed_measurement("VRYFCTFLWWSTIRQAQYNI")
0.218
>>> observed_measurement("AEAISSYHGWSYYLHHTPFS")
0.654
>>> observed_measurement("VNTIQASMYW")
1.22
>>> observed_measurement("STVNGICSRKLAIRELFSNH")
-0.063
>>> observed_measurement("PFFTIKWCNFSSFIGYEPLL")
-0.161
>>> observed_measurement("SQPMSS")
0.591
>>> observed_measurement("KRDLPTQTTDNLACSWAPTQ")
-0.884
>>> observed_measurement("LWFGSHLTNCVKYDLKGESV")
1.41
>>> observed_measurement("MKCYVFLKNWMWLVDYLDSI")
-0.991
>>> observed_measurement("VHKDFHANANRVSWQLAL")
-0.243

====

Experiment: amyloid nucleation score (Sup35N fusion, yeast selection) (log enrichment); library NNK2; higher = more nucleation; inactive = no reads after selection
Metric: amyloid nucleation score

>>> observed_measurement("YFYRRVCGINAGPQPCLEYV")
-1.27
>>> observed_measurement("FPRSGYITHLDCATR")
-0.589
>>> observed_measurement("QLNVSLNRLFLCGGSAELPS")
7.55
>>> observed_measurement("TFLWLT")
2.33
>>> observed_measurement("VDLCDFCKLVASMVEDGSRE")
"inactive"
>>> observed_measurement("MMWLSARMQR")
6.73
>>> observed_measurement("VTNSSMQMSSWADPSVKSGM")
0.032
>>> observed_measurement("VPFCGNNCSHCVRMSRLGRS")
0.719
>>> observed_measurement("YWYASSSSNIWYPEVCKCPV")
-0.77
>>> observed_measurement("FYYYLFFLAIISCTGYLALS")
0.286
>>> observed_measurement("HLIAFLSAYFYYVMLARMYF")
-1.87
>>> observed_measurement("LLPRDALFPPIFVIISECVF")
-0.063
>>> observed_measurement("YAMCPCVYNLDSQGAC")
3.85
>>> observed_measurement("IMLKGDWC")
-0.189
>>> observed_measurement("GCFERGNLFNFV")
"inactive"
>>> observed_measurement("MTVNSLFHRLNKLRGILPDR")
-0.902
>>> observed_measurement("NAHMSRRGYSSMMRCY")
"inactive"
>>> observed_measurement("VWVKRVDASSCAVS")
1.26
>>> observed_measurement("LCWMRFLDSCEEVHKSIHVF")
0.38
>>> observed_measurement("LLLTLCSDHMLNGNVVGHDW")
4.05
>>> observed_measurement("VDGTFYLTYFTTCVQSIFFA")
0.558
>>> observed_measurement("GVGSCTRQLWRISRSTPLKL")
2.65
>>> observed_measurement("VIGRYIDYC")
-0.13
>>> observed_measurement("VCRVFIKLYI")
1.03
>>> observed_measurement("SCIYRE")
-0.097
>>> observed_measurement("LVNFSSLIV")
-2.07
>>> observed_measurement("LSRLNFGIFDKVTAATGLMK")
-1.26
>>> observed_measurement("NSASLFFS")
0.27
>>> observed_measurement("YSRGMGVSNEMRDYFNKRDI")
"inactive"
>>> observed_measurement("SLDSNNSVFFVCMYSYRGCS")
0.359
>>> observed_measurement("VKVPYMLARGLDQKGTRRWQ")
8.1
>>> observed_measurement("VCYKYRTCYIYISFRSNFST")
-1.04
>>> observed_measurement("WSMCFMPVRWSFSGTIYMHK")
0.472
>>> observed_measurement("ALDGVRNSEMGKRVSGVCEY")
0.89
>>> observed_measurement("ILLNGRSFLRS")
0.174
>>> observed_measurement("LLEAQSISCYRRGVYLLGQL")
3.32
>>> observed_measurement("CQGHQWSYRPVP")
0.684

====

Experiment: amyloid nucleation score (Sup35N fusion, yeast selection) (log enrichment); library NNK2; higher = more nucleation; inactive = no reads after selection
Listed here: items and their measured amyloid nucleation score.
Metric: amyloid nucleation score

>>> observed_measurement("FWVMANYRH")
3.18
>>> observed_measurement("CSMFSKLMVNSGLSSVLTVM")
0.047
>>> observed_measurement("DMLPVRVVAHWCVVARCTRV")
0.965
>>> observed_measurement("STVVLSHRCLLSCE")
-0.656
>>> observed_measurement("SYENTSV")
0.376
>>> observed_measurement("VEVYTVSSYVDYVYPDCRGV")
0.418
>>> observed_measurement("SVPDFDRWAFTGRVQTYADC")
-0.614
>>> observed_measurement("GTNKAYFNASFMD")
-0.875
>>> observed_measurement("TLSSFL")
-1.55
>>> observed_measurement("LSMERSVGFYDTVTLWLQRK")
5.9
>>> observed_measurement("HIFCRLRLAGNRLRSCLCNF")
-1.16
>>> observed_measurement("DMGGPTTIY")
0.798
>>> observed_measurement("NWSVILYIRACTASNIEWLS")
1.52
>>> observed_measurement("QLFGFGYVLVV")
-1.12
>>> observed_measurement("DNKWILDRLIQHSLDHKVCR")
-0.332
>>> observed_measurement("MSWAVRDSIHRNYLKFVNRR")
-0.02
>>> observed_measurement("KISVWGYRFLDRH")
0.072

====

Assay: amyloid nucleation score (Sup35N fusion, yeast selection) (log enrichment); library NNK2; higher = more nucleation; inactive = no reads after selection
Metric: amyloid nucleation score

>>> observed_measurement("ISRRHGFIILLGNDIRRVDY")
0.554
>>> observed_measurement("STSFRASSGDKYEFDVKHLV")
0.195
>>> observed_measurement("YIVCLMESIRI")
3.2
>>> observed_measurement("MTALATRRCHPLYISA")
-0.661
>>> observed_measurement("RVGQGSEACFRSWSIAGPPY")
2.8
>>> observed_measurement("GYIAYATVWGLQDNGSRSIA")
-0.637
>>> observed_measurement("PSCRWKLHEMSTSSVQFWMK")
5.59
>>> observed_measurement("KPWFVVDRKNFRSNSAPWLG")
0.073
>>> observed_measurement("IDGKARDYMAGDARMNRF")
-1.45
>>> observed_measurement("NIVLTLSRGF")
2.56
>>> observed_measurement("YFWLVFLKKHRQGLEGKGGW")
0.004
>>> observed_measurement("GSTVKSIVCDSVWS")
0.082
>>> observed_measurement("WYTDPDSDVAHYFAPQLK")
-0.693
>>> observed_measurement("DQAHRGSCDVS")
0.214
>>> observed_measurement("LVLPYSGTHAGLRVWCGSSV")
0.696
>>> observed_measurement("RTFAKVLKSSYQRNLPSTDV")
0.267
>>> observed_measurement("FVLCYTTGFLVTFLLEWFFS")
0.228
